Listing: molar heat capacity at constant pressure of selected compounds
# test-details: molar heat capacity at constant pressure
# run-parameters: 243.15 K; 101.33 kPa; Crystal; Small sample (50 mg) DSC
Write the value in J/K/mol as a bare number.

Some solved entries appear below for comparison.
- OC[C@@H](O)C(O)[C@H](O)CO [D-arabitol]: 163.32
- OC[C@@H](O)[C@H](O)[C@@H](O)CO [xylitol]: 170.22
- O[C@H]1[C@H](O)[C@@H](O)[C@H](O)[C@@H](O)[C@H]1O [cis-1,2,3,5-trans-4,6-cyclohexanehexol]: 176.08
- OC[C@@H](O)[C@@H](O)[C@H](O)[C@H](O)CO [D-mannitol]: 189.39
- OC[C@@H](O)[C@@H](O)CO [meso-1,2,3,4-butanetetrol]: 135.48

Now turn to the next compound.
(Q) Recall and state the measured molar heat capacity at constant pressure for OC[C@H](O)C(O)[C@@H](O)CO [L-(-)-arabitol] .
(A) 168.16

---

# test-details: molar heat capacity at constant pressure
# run-parameters: 120 K; 101.33 kPa; Crystal; relaxation calorimetry
Listing of recorded molar heat capacity at constant pressure by entry.
Answer in J/K/mol, number only, no unit symbol.

- OC[C@@H](O)C(O)[C@H](O)CO: 91.85

(Q) State its molar heat capacity at constant pressure: OC[C@H](O)C(O)[C@@H](O)CO [L-(-)-arabitol]
(A) 92.52

(Q) Name the recorded molar heat capacity at constant pressure of the molecule listed here: OC[C@@H](O)[C@@H](O)[C@H](O)[C@H](O)CO
(A) 103.5

(Q) Give the value of molar heat capacity at constant pressure reported for the following: OC[C@@H](O)[C@@H](O)CO
(A) 74.73

(Q) Look up and state reported molar heat capacity at constant pressure for OC[C@@H](O)[C@H](O)[C@@H](O)CO
(A) 91.15

(Q) Supply measured molar heat capacity at constant pressure of O[C@H]1[C@H](O)[C@@H](O)[C@H](O)[C@@H](O)[C@H]1O [cis-1,2,3,5-trans-4,6-cyclohexanehexol] in your reply.
(A) 87.03

---

# test-details: molar heat capacity at constant pressure
# run-parameters: 2 K; 101.33 kPa; Crystal; relaxation calorimetry
measurement-label: molar heat capacity at constant pressure (J/K/mol)
Express your answer in J/K/mol, writing the number without its unit.

Worked cases, molar heat capacity at constant pressure given:
• O[C@H]1[C@H](O)[C@@H](O)[C@H](O)[C@@H](O)[C@H]1O [cis-1,2,3,5-trans-4,6-cyclohexanehexol] = 0.0108
• OC[C@@H](O)[C@@H](O)CO = 0.006099
• OC[C@@H](O)[C@@H](O)[C@H](O)[C@H](O)CO = 0.007583
• OC[C@@H](O)C(O)[C@H](O)CO = 0.005256
• OC[C@@H](O)[C@H](O)[C@@H](O)CO = 0.006331

# next compound below
(Q) Specify molar heat capacity at constant pressure for OC[C@H](O)C(O)[C@@H](O)CO [L-(-)-arabitol] and stop.
(A) 0.00537

---

# molar entropy per record follows
# run-parameters: 160 K; 101.33 kPa; Crystal; relaxation calorimetry
A number alone suffices; assume J/K/mol.

Example entries begin here.
* OC[C@@H](O)[C@H](O)[C@@H](O)CO | 100.65
* OC[C@H](O)C(O)[C@@H](O)CO [L-(-)-arabitol] | 104.63
* OC[C@@H](O)[C@@H](O)CO | 86.79
* OC[C@@H](O)[C@@H](O)[C@H](O)[C@H](O)CO | 117.62
* O[C@H]1[C@H](O)[C@@H](O)[C@H](O)[C@@H](O)[C@H]1O [cis-1,2,3,5-trans-4,6-cyclohexanehexol] | 97.42

Let us examine a further case.
(Q) Answer with the recorded molar entropy of OC[C@@H](O)C(O)[C@H](O)CO only.
(A) 103.81

---

# test-details: molar heat capacity at constant pressure
# run-parameters: 413.15 K; 101.33 kPa; Liquid; Small sample (50 mg) DSC
measurement-label: molar heat capacity at constant pressure (J/K/mol)
Unit J/K/mol implied. Number only.

* OC[C@H](O)C(O)[C@@H](O)CO [L-(-)-arabitol] | 450.17
* OC[C@@H](O)[C@@H](O)CO | 355.22

(Q) Respond only with molar heat capacity at constant pressure recorded for OC[C@@H](O)C(O)[C@H](O)CO
(A) 450.76

(Q) Give the reported value of molar heat capacity at constant pressure for this record: OC[C@@H](O)[C@H](O)[C@@H](O)CO
(A) 443.38

---

Listed below: molar heat capacity at constant pressure values for each entry.
# test-details: molar heat capacity at constant pressure
# run-parameters: 265.15 K; 101.33 kPa; Crystal; Small sample (50 mg) DSC
API: value field is a number in J/K/mol; no unit string.

# annotated cases, reported molar heat capacity at constant pressure shown
• OC[C@H](O)C(O)[C@@H](O)CO [L-(-)-arabitol] = 184.23
• O[C@H]1[C@H](O)[C@@H](O)[C@H](O)[C@@H](O)[C@H]1O [cis-1,2,3,5-trans-4,6-cyclohexanehexol] = 192.51
• OC[C@@H](O)C(O)[C@H](O)CO = 177.53
• OC[C@@H](O)[C@@H](O)CO = 146.7
• OC[C@@H](O)[C@H](O)[C@@H](O)CO = 185.58

// switching to the query compound
(Q) Read off the recorded molar heat capacity at constant pressure for OC[C@@H](O)[C@@H](O)[C@H](O)[C@H](O)CO
(A) 205.89

---

# test-details: molar heat capacity at constant pressure
# run-parameters: 305.15 K; 101.33 kPa; Crystal; Small sample (50 mg) DSC
# maps each entry to its molar heat capacity at constant pressure
Report the figure in J/K/mol without appending any unit label.

Example results:
• O[C@H]1[C@H](O)[C@@H](O)[C@H](O)[C@@H](O)[C@H]1O [cis-1,2,3,5-trans-4,6-cyclohexanehexol] = 223.48
• OC[C@@H](O)C(O)[C@H](O)CO = 206.52
• OC[C@@H](O)[C@@H](O)[C@H](O)[C@H](O)CO = 236.24
• OC[C@@H](O)[C@H](O)[C@@H](O)CO = 215.11
• OC[C@@H](O)[C@@H](O)CO = 169.01

We now examine a further molecule.
(Q) Indicate the recorded molar heat capacity at constant pressure value for this molecule: OC[C@H](O)C(O)[C@@H](O)CO [L-(-)-arabitol]
(A) 212.38

---

# run-parameters: 220 K; 101.33 kPa; Crystal; relaxation calorimetry
± gives the expanded uncertainty stated by the source.
Here the recorded molar entropy is given for each entry.
Give the value; after it, write the unit.

Consider the reported molar entropy for these compounds:
- OC[C@@H](O)[C@@H](O)[C@H](O)[C@H](O)CO [D-mannitol]: 166.06 ± 15 J/K/mol
- O[C@H]1[C@H](O)[C@@H](O)[C@H](O)[C@@H](O)[C@H]1O [cis-1,2,3,5-trans-4,6-cyclohexanehexol]: 141.19 ± 13 J/K/mol
- OC[C@@H](O)[C@@H](O)CO [meso-1,2,3,4-butanetetrol]: 121.68 ± 11 J/K/mol
- OC[C@@H](O)C(O)[C@H](O)CO [D-arabitol]: 146.44 ± 13 J/K/mol
- OC[C@H](O)C(O)[C@@H](O)CO [L-(-)-arabitol]: 147.69 ± 14 J/K/mol

Please find the next compound below.
(Q) Quick one: give measured molar entropy for OC[C@@H](O)[C@H](O)[C@@H](O)CO [xylitol]
(A) 143.7 ± 13 J/K/mol

---

# test-details: molar heat capacity at constant pressure
# run-parameters: 20 K; 101.33 kPa; Crystal; relaxation calorimetry
Numbers after ± are expanded uncertainties.
measurement-label: molar heat capacity at constant pressure
A bare number is not enough; add the unit after it.

Worked cases, molar heat capacity at constant pressure given:
* O[C@H]1[C@H](O)[C@@H](O)[C@H](O)[C@@H](O)[C@H]1O [cis-1,2,3,5-trans-4,6-cyclohexanehexol] | 8.193 ± 0.5 J/K/mol
* OC[C@@H](O)[C@@H](O)[C@H](O)[C@H](O)CO [D-mannitol] | 7.832 ± 0.48 J/K/mol

(Q) Note molar heat capacity at constant pressure for the molecule shown: OC[C@@H](O)[C@H](O)[C@@H](O)CO [xylitol]
(A) 6.537 ± 0.4 J/K/mol

(Q) Give the reported value of molar heat capacity at constant pressure for this record: OC[C@@H](O)C(O)[C@H](O)CO [D-arabitol]
(A) 6.963 ± 0.43 J/K/mol

(Q) // Input: OC[C@@H](O)[C@@H](O)CO [meso-1,2,3,4-butanetetrol] . Output its molar heat capacity at constant pressure only.
(A) 6.679 ± 0.41 J/K/mol

(Q) Identify measured molar heat capacity at constant pressure associated with OC[C@H](O)C(O)[C@@H](O)CO [L-(-)-arabitol]
(A) 7.063 ± 0.43 J/K/mol
